Source: paper PMC9332313

measured_on: T1, SH2 domain of Crkl protein (residues 1-111), H33A variant (UniProt P46109 1-111, H33A)
T1 construct: Crkl adaptor protein, SH2 domain, residues 1-111, His33 replaced by alanine; Site-directed mutant of m1 (QuikChange); source: E. coli BL21 (DE3), purified (HisTrap nickel column, desalting); not shown: His tag, N-terminal, kept
procedure_details: stopped-flow fluorescence kinetics (FRET); dansyl-Pax112-123 constant at 2 μM mixed with Crkl-SH2 2 to 10 μM (pseudo-first-order, kon); koff by displacement of the preincubated 2 µM complex with excess non-dansylated Pax112-123 (30 μM); 283 K; 50 mM TrisHCl pH 8.5, 0.5 M NaCl
test_parameters: both partners purified
Square brackets hold non-standard residues; d marks the D form. Ends that are not written are not given here. * marks the point of attachment. pY = N[C@@H](Cc1ccc(OP(=O)(O)O)cc1)C(=O)O; Dansyl = CN(C)c1cccc2c(S(=O)(=O)*)cccc12
readout: Kd (µM)

[[record]]
binder = "Dansyl-GEEEHV[pY]SFPNK (The dansyl group is the FRET acceptor of Trp14 of the SH2 domain; source: synthetic peptide, bought: GenScript) [dansylated Pax_(112–123) peptide (Dans-GEEEHV-pY-SFPNK)]"
unit_symbol = "µM"
result = 2.1

